These data points were gathered from patent US7109193B2.

Catalogue of inhibition at 0.1 µM readings, one per entry.
experimental_system: human vasopressin V2 receptor subtype (Homo sapiens, UniProt P30518)
Construct: host or cells: CHO cells (pZeoSV vector)
Sequence (P30518 whole entry): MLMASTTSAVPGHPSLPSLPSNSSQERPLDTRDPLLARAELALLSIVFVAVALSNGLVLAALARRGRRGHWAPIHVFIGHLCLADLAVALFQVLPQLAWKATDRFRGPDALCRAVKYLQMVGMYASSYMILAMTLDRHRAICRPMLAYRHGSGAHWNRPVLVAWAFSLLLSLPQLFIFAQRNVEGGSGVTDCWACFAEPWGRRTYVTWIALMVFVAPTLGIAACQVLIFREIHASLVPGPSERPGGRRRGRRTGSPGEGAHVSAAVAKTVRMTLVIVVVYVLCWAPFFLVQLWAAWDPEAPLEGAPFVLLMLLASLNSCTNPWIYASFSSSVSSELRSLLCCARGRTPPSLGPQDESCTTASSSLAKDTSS
measurement_description: Vasopressin binding in Chinese Hamster Ovary cell membranes expressing human vasopressin V2 subtype receptors
assay_conditions: 100 nM, CHO cell membranes, [3H]arginine vasopressin, values without parentheses
Method: Vasopressin Binding in Chinese Hamster Ovary Cell Membranes Expressing Human Vasopressin V2 Subtype Receptors […] The trypsin is removed by aspiration and the cells dislodged by tapping. […] The filter paper is thoroughly dried (7–12 min. in a microwave oven) and impregnated with MeltiLex B/H melt-on scintillation wax sheets and the radioactivity counted in a betaplate scintillation counter.
Kindly provide the numeric value in % only, without the unit symbol.

Take a look at these entries with their results.
[
  {
    "compound": "COc1cccc(-c2ccc(C(=O)N3Cc4ccc(C(=O)N5CCC(N6CCCC6)CC5)n4Cc4ccccc43)cc2C)c1",
    "endpoint": "inhibition at 0.1 µM",
    "value_units": "%",
    "value_measured": 12
  },
  {
    "compound": "COc1ccccc1-c1ccc(C(=O)N2Cc3ccc(C(=O)NCCC4CCCN4C)n3Cc3ccccc32)cc1OC (centres unmarked)",
    "endpoint": "inhibition at 0.1 µM",
    "value_units": "%",
    "value_measured": 14
  },
  {
    "compound": "COc1ccccc1-c1ccc(C(=O)N2Cc3ccc(C(=O)N[C@@H]4CN5CCC4CC5)n3Cc3ccccc32)cc1OC",
    "endpoint": "inhibition at 0.1 µM",
    "value_units": "%",
    "value_measured": 19
  },
  {
    "compound": "Cc1ccccc1-c1ccc(C(=O)N2Cc3ccc(C(=O)N4CCC(N5CCCC5)CC4)n3Cc3ccccc32)cc1C",
    "endpoint": "inhibition at 0.1 µM",
    "value_units": "%",
    "value_measured": 29
  },
  {
    "compound": "COc1cc(C(=O)N2Cc3ccc(C(=O)NCCCN(C)C)n3Cc3ccccc32)ccc1-c1cccc2ccccc12",
    "endpoint": "inhibition at 0.1 µM",
    "value_units": "%",
    "value_measured": 43
  },
  {
    "compound": "CN1CCCC1CCNC(=O)c1ccc2n1Cc1ccccc1N(C(=O)c1ccc(-c3cccc4ccccc34)cc1Cl)C2 (centres unmarked)",
    "endpoint": "inhibition at 0.1 µM",
    "value_units": "%",
    "value_measured": 17
  }
]

Requested field: inhibition at 0.1 µM. Item: COc1cccc(-c2ccc(C(=O)N3Cc4ccc(C(=O)N5CCN(C(C)C)CC5)n4Cc4ccccc43)cc2OC)c1 25

Look at this compound and give its reported inhibition at 0.1 µM. COc1cc(-c2ccccc2C)c(Cl)cc1C(=O)N1Cc2ccc(C(=O)NCCCn3ccnc3)n2Cc2ccccc21 5

What value of inhibition at 0.1 µM has been recorded for this entry: COc1ccccc1-c1ccc(C(=O)N2Cc3ccc(C(=O)N[C@@H](Cc4c[nH]cn4)C(N)=O)n3Cc3ccccc32)cc1OC 27

Field request: inhibition at 0.1 µM | item: COc1cc(C(=O)N2Cc3ccc(C(=O)N4CCN(C)CC4)n3Cc3ccccc32)ccc1-c1ccccc1C 23

Which value of inhibition at 0.1 µM has been reported for O=C(NCCCn1ccnc1)c1ccc2n1Cc1ccccc1N(C(=O)c1ccc(-c3cccc4ccccc34)cc1Cl)C2 in the records? 16

Looking for the measured inhibition at 0.1 µM of COc1cc(C(=O)N2Cc3ccc(C(=O)N4CCCN(C)CC4)n3Cc3ccccc32)ccc1-c1ccccc1C , can you help? 20

So what's the measured inhibition at 0.1 µM for this one? COc1ccccc1-c1ccc(C(=O)N2Cc3ccc(C(=O)N4CCN(C(C)C)CC4)n3Cc3ccccc32)cc1 22

Requested field: inhibition at 0.1 µM. Item: C=CCN1CCN(C(=O)c2ccc3n2Cc2ccccc2N(C(=O)c2ccc(-c4ccccc4C)cc2)C3)CC1 7
